- tested system: Streptavidin (Streptomyces avidinii) (UniProt P22629)
- Sequence (P22629 whole entry, looked up): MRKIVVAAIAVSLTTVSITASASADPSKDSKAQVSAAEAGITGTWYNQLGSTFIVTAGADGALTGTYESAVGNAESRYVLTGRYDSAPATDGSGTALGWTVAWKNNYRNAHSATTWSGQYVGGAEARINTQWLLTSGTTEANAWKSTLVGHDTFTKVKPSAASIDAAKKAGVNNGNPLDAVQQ
- measurement notes: compounds binding control protein streptavidin – biophysical, small-molecule microarray, 635/667 nm fluorescence, artefact control for SMM compound annotation, primary screen (AID 1147);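 note: signal reflects streptavidin binding to arrayed compounds as a control protein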
- condition: higher = more signal
Reported composite z-score values for the following compounds.

compound	composite z-score
CC(C)(C)OC(=O)CC[C@]1(C(=O)N2CCCCC2)N=C(c2ccc(OCCCO)cc2)O[C@H]1c1ccccc1CN=[N+]=[N-]	0.835
Cc1ccc(-c2cccc(=O)o2)cc1	-0.317
CC1CC/C=C\[C@H]2OC34C=CCN(c5ccc(Cl)cc5)C(=O)[C@H]3N(C(CO)C(C)C)C(=O)[C@]4(C)C2C(=O)O1 (stereo partly drawn)	-1.17
COC(=O)C(CC#Cc1ccc2c(c1)[C@]1(C(=O)N2)[C@H](c2ccc(O)cc2)N2[C@H](c3ccccc3)[C@H](c3ccccc3)OC(=O)[C@H]2[C@@H]1C(N)=O)C(=O)OC	-1.42
COC(=O)[C@@]1(Cc2ccc(OC)cc2)[C@H]2c3cc(C(=O)N(C)C)n(CCF)c3C[C@H]2CN1C(=O)c1ccccc1	2.2
COC(=O)[C@@]1(Cc2ccc(OC)cc2)[C@H]2c3cc(C(=O)N4CCCC4)n(CCc4ccc(O)c(OC)c4)c3C[C@H]2CN1C(=O)c1ccccc1	0.199
O=C1NC(=O)C2C1C=CC(C(O)c1ccc(-c3ccccc3)s1)N2Nc1ccccn1 (stereo not drawn)	0.45
[N-]=[N+]=Nc1ccccc1[C@@H]1OC(c2ccc(OCCCO)cc2)=N[C@]1(CCS(=O)(=O)c1ccccc1)C(=O)NCc1ccccc1	1.3
CO[C@H]1O[C@H](CO)[C@@H](OC(=O)Nc2ccc(C(F)(F)F)cc2)[C@H](OC(=O)Nc2ccccc2)[C@H]1OC(=O)Nc1ccccc1	1.22
COCCCNC(=O)[C@@]1(Cc2ccccc2)COC(c2ccc(OCCCO)cc2)=N1	-0.207
C[C@]12C(=O)N(CCCO)[C@@H]3C(=O)N(c4ccc(Cl)cc4)CC=CC31O[C@@H]1/C=C\CCCOC(=O)C12 (stereo partly drawn)	-1.19
CN(C)CCCC[C@@H]1NC(=O)[C@H]2C[C@@H](C(=O)NCCCCCCNC(=O)CS)[C@@H](c3ccc(O)cc3)N2C1=O	-1.05
CCCNC(=O)[C@@H]1c2ccccc2C(=O)N(CC23CC4CC(CC(C4)C2)C3)[C@H]1c1ccc(CO)cc1	0.673

###

- measurement notes: JC-1 mitochondrial potential readout, lung cancer cells – cell-based, A549, JC-1 fluorescence, basal, 24 h, 100 nL, profiling panel (AID 1138);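 note: A549 lung adenocarcinoma cells under basal conditions with no added stimulus; test concentration not given here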
- condition: higher = more signal
Threshold rule: z-score greater than or equal to 0.7 is class 1; below that, class 0.

                                    molecule  label_value
 0  [N-]=[N+]=Nc1ccccc1[C@H]1OC(c2ccc(OCCCO)cc2)=N[C@@]1(Cc1ccccc1)C(=O)NCc1ccccc1      class 0
 1  CC1C=C(CCCO)C=C(C(=O)OCCS(C)(=O)=O)C(C(=O)OCCS(C)(=O)=O)=CN1Cc1cccc(OC(F)(F)F)c1 (stereo not given)      class 1
 2  C[C@H]1ON(c2ccccc2)[C@@H](c2ccccc2)[C@@H]1C(=O)N1C(=O)OC[C@@H]1c1ccccc1      class 0
 3  OCCCC1=CC(c2cccs2)N(Cc2cccc(OC(F)(F)F)c2)CC1 (stereo not given)      class 0
 4  CCOC(=O)C1=CCC(c2cccc(Cl)c2)O1 (stereo not given)      class 0
 5  C=CCN1C(=O)[C@@]2(O[C@@H](CCO)[C@H]([Si](C)(C)c3ccc(OC)cc3)[C@H]2C)c2cc(NC(=O)[C@H](C)O)ccc21      class 1
 6  COCCCNC(=O)[C@@]1(Cc2ccccc2I)c2ccccc2C(=O)N(Cc2ccccc2Cl)[C@H]1c1ccc(CO)cc1      class 1
 7  O=C(O)[C@@]1(Cc2ccccc2)COC(c2ccc(OCCCO)cc2)=N1      class 0
 8  CC(C)N1CC=CC23O[C@@H]4C=CCOC(=O)[C@@H]4[C@H]2C(=O)N(CCCCCCO)[C@@H]3C1=O (stereo not given in full)      class 0
 9  CCCC[C@H]1OB(O)C[C@H]2C1=C(COc1ccccc1)Cn1c(=O)n(-c3ccccc3)c(=O)n12      class 0
10  O=C1NC(=O)C2C1C=CC(C(O)c1ccc3c(c1)OCO3)N2Nc1ccc(Cl)cc1Cl (stereo not given)      class 0
11  CC1CC/C=C\[C@H]2OC34C=CCN(Cc5ccccc5)C(=O)[C@H]3N(CCO)C(=O)[C@@H]4C2C(=O)O1 (stereo not given in full)      class 0
12  CC1(C)[C@@H]2CC(C(O)C3C=CC4C(=O)N(c5ccccc5)C(=O)C4N3Nc3ccccc3F)=C[C@@H]1C2 (stereo not given in full)      class 0
13  CC(C)C(CO)N1C(=O)[C@@H]2[C@H]3C(=O)OCC=C[C@H]3OC23C=CCN(CCN2CCOCC2)C(=O)[C@@H]13 (stereo not given in full)      class 0
14  COc1ccc([Si](C)(C)[C@@H]2[C@@H](CCO)O[C@]3(C(=O)N(Cc4ccc(N5C(=O)c6ccccc6Oc6ccccc65)cc4)c4ccccc43)[C@H]2C)cc1      class 0
15  NCCCCCCNC(=O)[C@H]1C[C@H]2C(=O)N3CCC[C@H]3C(=O)N2[C@H]1c1ccc(O)cc1      class 0
16  CCCCC(CC)C(O)C1C=CC2C(=O)NC(=O)C2N1Nc1ccccn1 (stereo not given)      class 1
17  CC(C)c1ccc(NN2C(C(O)c3ccccn3)C=CC3C(=O)N(c4ccccc4)C(=O)C32)cc1 (stereo not given)      class 1
18  CCOC(=O)C[C@H]1[C@H](OC(=O)c2cc3ccccc3oc2=O)[C@@H](NC(=O)c2ccc3ccccc3n2)c2cc(OCCCO)ccc2N1C(=O)c1ccc2ccccc2n1      class 1
19  CO[C@H]1O[C@H](CO)[C@@H](OC(=O)c2ccc(Br)cc2)[C@@H]2OC(=O)[C@H](Cc3cccc(Br)c3)C/C=C/C[C@@H](Cc3cccc(Br)c3)C(=O)O[C@@H]12      class 1

###

- tested system: Calmodulin-1 (Homo sapiens) (UniProt P0DP23)
- measurement notes: small molecules binding calmodulin-1 with EGTA – biochemical, small-molecule microarray, Cy5-labelled CALM1, profiling panel (AID 1111);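 note: labelled calmodulin applied in Tris saline Tween buffer holding calcium plus EGTA and DTT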
- condition: Cy5-CALM1 binding fluorescence, higher = more signal
In this section we review reported composite z-score values for a set of compounds.
measured endpoint: composite z-score

                                   compound  result
0  Cc1ccccc1C(O)C1C=CC2C(=O)N(C)C(=O)C2N1Nc1ccc([N+](=O)[O-])cc1[N+](=O)[O-] (centres undefined)    1.43
1  CC(C)C[C@@H]1NC(=O)[C@@H]2C[C@H](C(=O)NCc3ccc(F)cc3)[C@H](c3ccc(O)cc3)N2C1=O    1.35
2  NC(=O)NCC#Cc1ccc2c(c1)[C@]1(C(=O)N2)[C@H](c2ccc(O)cc2)N2[C@H](c3ccccc3)[C@H](c3ccccc3)OC(=O)[C@H]2[C@@H]1C(N)=O  -0.571
3  COc1ccc(C#Cc2ccc3c(c2)[C@]2(C(=O)N3)[C@H](C(=O)O)[C@H]3C(=O)O[C@H](c4ccccc4)[C@H](c4ccccc4)N3[C@@H]2c2ccc(OCCO)cc2)cc1    2.25

###

Entries and their composite z-score values follow.
- tested system: Follistatin-related protein 3 (Homo sapiens)
- measurement notes: compounds binding follistatin-related protein 3 – biochemical, small-molecule microarray, 635 nm fluorescence, primary screen (AID 1105);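 note: score merges emission near 667 nm and signal to noise per printed spot across three slides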
- condition: FSTL3 binding, higher = more signal
measured endpoint: composite z-score

molecule	tested system	number
O=C1O[C@H](c2ccccc2)[C@H](c2ccccc2)N2[C@H]1[C@@H](C(=O)N1CCN(c3ncccn3)CC1)[C@]1(C(=O)Nc3ccc(C#CCCO)cc31)[C@H]2c1ccccc1OCCO	Follistatin-related protein 3 (Homo sapiens)	0.501
C=CCC(OC(C)=O)[C@@H]1[C@@H](N(Cc2cccc3ccccc23)C(=O)Cc2ccc(F)cc2)c2cc(OCCCO)ccc2N1C(=O)Cc1ccc(OC)cc1 (stereo partly drawn)	Follistatin-related protein 3 (Homo sapiens)	0.665
CN(C)CCCNC(=O)[C@@]1(Cc2ccccc2I)c2ccccc2C(=O)N(Cc2ccccc2Cl)[C@H]1c1ccc(CO)cc1	Follistatin-related protein 3 (Homo sapiens)	-0.509

###

Here, each record is paired with measured z-score data.
- measurement notes: hepatitis C replication reporter changes, two-sided – Huh7 cells, luciferase reporter, HCV replication inhibitor project, primary screen (AID 1109);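 note: huh7 hepatoma cells harbouring a luciferase neomycin HCV replicon reporter; luciferase luminescence as measure of HCV replicon replication; test concentration not given here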
- condition: Huh7 HCV replicon luciferase reporter, 48 h; higher = more signal

compound string	z-score
CCC[C@@H]1C[C@@]1(CCC)[C@@H](NC(=O)c1ccco1)c1ccc(Cl)cc1	-0.49
C[N+](C)(C)CCCCNC(=O)[C@H]1C[C@H]2C(=O)NCC(=O)N2[C@H]1c1ccc(O)cc1	-0.463
C=C[C@H](C)[C@H](OC(=O)Nc1ccc(SC)cc1)c1ccc(O)c2ccccc12	-0.766
COc1ccc(C#Cc2ccc3c(c2)[C@]2(C(=O)N3)[C@H](c3ccc(OCCO)cc3)N3[C@H](c4ccccc4)[C@H](c4ccccc4)OC(=O)[C@H]3[C@@H]2C(=O)N2CCN(c3ncccn3)CC2)cc1	-1.18
COC(=O)[C@@]1(Cc2ccc(OC)cc2)[C@H]2c3cc(C(=O)N4CCCC4)n(Cc4ccc(C)o4)c3C[C@H]2CN1C(=O)c1ccccc1	-3.68
